Data credit: PubChem BioAssay (NCI)

I'd be grateful if you could share measured growth inhibition for these entries.
PROCEDURE TEXT: NCI Yeast Anticancer Drug Screen. Data for the mec2-1 strain (AID 157)
SETUP CONDITIONS: S. cerevisiae mec2-1 strain, at 50.0 µM, hits give high values
Compounds without any hit were thinned out: in the full panel of roughly 79,000, 15% have a hit.
Hi! Could you send only the number? It should be in %, unit omitted.

The molecule listed as `Cc1cccc(O)c1` shows growth inhibition equal to -9.8

The molecule listed as CCOCC(Cl)C(OCC)OCC (configuration not stated) shows growth inhibition equal to 6.5

The molecule listed as CC1CCc2nc(N)nc(CC3CC(=O)NC(=O)C3)c2C1 (configuration not stated) shows growth inhibition equal to -5.65

The molecule listed as `C/C=C/C=C/c1nc(C#N)c(N)o1` shows growth inhibition equal to -2.2

The molecule listed as `CC(C)N(CCSC(=O)N1c2ccccc2Sc2cccnc21)C(C)C` shows growth inhibition equal to 0.8

The molecule listed as `CC(C)CCOc1ccc(C(N)=S)c2ccccc12` shows growth inhibition equal to 96.8

The molecule listed as `O=C1C(OC(=O)c2ccccc2)=C(c2ccc(O)cc2)C(=O)C(OC(=O)c2ccccc2)=C1c1ccc(O)cc1` shows growth inhibition equal to 0.45
